- Test system: cathepsin D (catD) versus beta-secretase (BACE)
- assay.notes: Selectivity for BACE versus catD (ratio of IC50 values)
- Type: biochemical
- test.context: each value is an average of four experimental runs; multiple values = more than one experiment
Cut-off 3 on Selectivity IC50(catD)/IC50(BACE): below means true, at or above means false.

- compound: "CC(=O)NC(Cc1cc(F)cc(F)c1)C(O)CNC1(c2cccc(C(C)(C)C)c2)CCc2nn(C(C)=O)cc2C1 (stereo not shown) [Example 50-12]"
  category.label: "false"

Let's switch to this compound now.
Exam item: Determine whether this compound shows Selectivity IC50(catD)/IC50(BACE) lower than 3 (ties excluded): CC(C)(C)c1cccc(C2(NCC(O)C(Cc3cc(F)cc(F)c3)NC(=O)CF)CCc3n[nH]cc3C2)c1 (stereo not shown) [Example 50-25]
Marked response: false

====

- System: cathepsin E (catE) versus beta-secretase (BACE)
- assay.notes: Selectivity for BACE versus catE (ratio of IC50 values)
- Format: biochemical
- test.context: multiple values = more than one experiment
Quick reference: Selectivity IC50(catE)/IC50(BACE) of the listed items.

Here is how some molecules turned out for Selectivity IC50(catE)/IC50(BACE).
- molecule: "C=C1CCC(NCC(O)C(Cc2cc(F)cc(F)c2)NC(C)=O)(c2cccc(C(C)(C)C)c2)CC1 (stereo not shown)"
  Selectivity IC50(catE)/IC50(BACE): 1.9
- molecule: "Cn1cc2c(n1)CCC(NCC(O)C(Cc1cc(F)cc(F)c1)NS(C)(=O)=O)(c1cccc(C(C)(C)C)c1)C2 (stereo not shown)"
  Selectivity IC50(catE)/IC50(BACE): 4.8
- molecule: "CC(=O)NC(Cc1cc(F)cc(F)c1)C(O)CNC1(c2cccc(-n3cccn3)c2)CCc2nn(C)cc2C1 (stereo not shown)"
  Selectivity IC50(catE)/IC50(BACE): 1.8

As a next step, examine the molecule that follows.
For CCON=C1CCC(NCC(O)C(Cc2cc(F)cc(F)c2)NC(C)=O)(c2cccc(C(C)(C)C)c2)CC1 (stereo not shown) the molecule record lists Selectivity IC50(catE)/IC50(BACE) as 3.3

====

- Tested on: cathepsin E (catE) versus beta-secretase (BACE)
- assay.notes: Selectivity for BACE versus catE (ratio of IC50 values)
- Format: biochemical
- test.context: multiple values = more than one experiment
recorded.endpoint: Selectivity IC50(catE)/IC50(BACE)
Answer field: number only, no words.

As a guide, the following entries are already answered.
- compound: "CC(=O)NC(Cc1cc(F)cc(F)c1)C(O)CNC1(c2cccc(-c3ccsc3)c2)CCc2nn(C)cc2C1 (stereo not drawn)"
  measured: 1.1
- compound: "CC(C)(C)c1cccc(C2(NCC(O)C(Cc3cc(F)cc(F)c3)NS(C)(=O)=O)CCc3n[nH]cc3C2)c1 (single isomer, unassigned) [Example 51-19]"
  measured: 5.8
- compound: "CC(C)(C)c1cccc(C2(NCC(O)C(Cc3cc(F)cc(F)c3)NS(C)(=O)=O)CCc3n[nH]cc3C2)c1 (single isomer, unassigned) [Example 51-18]"
  measured: 23.2

Observed Selectivity IC50(catE)/IC50(BACE), cathepsin E (catE) versus beta-secretase (BACE), CC(=O)NC(Cc1cc(F)cc(F)c1)C(O)CNC1(c2cccc(C(C)(C)C)c2)CCc2nn(C)cc2C1 (stereo not drawn) : 1.8

Selectivity IC50(catE)/IC50(BACE) for cathepsin E (catE) versus beta-secretase (BACE) with input CC(=O)NC(Cc1cc(F)cc(F)c1)C(O)CNC1(c2cccc(C(C)(C)C)c2)CCC(=CC#N)CC1 (stereo not drawn) equals 3.9

Entry CC(=O)NC(Cc1cc(F)cc(F)c1)C(O)CNC1(c2cccc(C(C)(C)C)c2)CCc2nn(C(C)=O)cc2C1 (stereo not drawn) , tested on cathepsin E (catE) versus beta-secretase (BACE), has a reported Selectivity IC50(catE)/IC50(BACE) of 8.4
